Values were extracted from patent US20190263905A1.

# target.system: T1, Antigen CD66c (CEACAM6; Sino Biological, Inc.) (UniProt P40199 35-320)
# T1 construct: Bought antigen coated on the ELISA plate; construct not described; also called CD66c antigen; CECACAM6
# T1 sequence (looked up): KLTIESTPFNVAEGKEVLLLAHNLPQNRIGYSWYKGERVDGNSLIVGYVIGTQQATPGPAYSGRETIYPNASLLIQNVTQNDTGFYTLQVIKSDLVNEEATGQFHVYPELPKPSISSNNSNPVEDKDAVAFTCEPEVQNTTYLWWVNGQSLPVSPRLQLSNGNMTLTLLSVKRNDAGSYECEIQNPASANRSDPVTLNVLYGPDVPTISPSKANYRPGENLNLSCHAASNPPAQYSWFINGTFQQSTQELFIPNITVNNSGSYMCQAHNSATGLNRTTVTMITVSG
# protocol.text: ELISA, coated CEACAM6 100 ng/well, antibody 1.52 ng/ml
# Protocol: Antigen CD66c (CEACAM6; Sino Biological, Inc.) and CEACAM1 antigen (Sino Biological, Inc.) were coated on a 96-well plate at 100 ng per well and then blocked. […] The washing was carried out at three times between each step, and the TMB reaction was performed, stopped with 1N H₂SO₄ solution at the same amount of TMB solution (100 ul) and then OD value was measured at 450 nm. […]
Rule: measured OD 450 nm below 0.5 OD gets T; anything equal to or greater than 0.5 OD gets F.

binder	category.label
anti-CD66c chimeric antibody 8F5 (antibody, human IgG1, V domains shown, also called chimeric 8F5 antibody; chi 8F5) VH: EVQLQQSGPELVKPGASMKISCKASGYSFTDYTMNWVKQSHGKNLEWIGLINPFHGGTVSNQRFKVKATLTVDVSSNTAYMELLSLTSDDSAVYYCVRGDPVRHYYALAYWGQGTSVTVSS VL: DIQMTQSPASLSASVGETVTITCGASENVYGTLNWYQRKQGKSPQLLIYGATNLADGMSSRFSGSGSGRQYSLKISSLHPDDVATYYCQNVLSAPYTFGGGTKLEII	F

*Q* Does this binder meet the criterion OD 450 nm < 0.5 OD? recombinant humanized anti-CD66c antibody Protein ID 3007 (Vk7 + VH6) (antibody, human IgG1, V domains shown, also called hu 3007; #43) VH: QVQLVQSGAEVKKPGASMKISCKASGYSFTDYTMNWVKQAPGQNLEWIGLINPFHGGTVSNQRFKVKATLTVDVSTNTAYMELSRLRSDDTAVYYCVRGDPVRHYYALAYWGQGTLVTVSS VL: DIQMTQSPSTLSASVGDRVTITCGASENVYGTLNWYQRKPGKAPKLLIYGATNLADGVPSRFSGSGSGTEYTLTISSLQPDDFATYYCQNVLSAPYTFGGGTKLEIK
*A* F

*Q* In the record for recombinant humanized anti-CD66c antibody Protein ID 3058 (Vk8 + VH11) (antibody, human IgG1, V domains shown, also called hu 3058; #86) VH: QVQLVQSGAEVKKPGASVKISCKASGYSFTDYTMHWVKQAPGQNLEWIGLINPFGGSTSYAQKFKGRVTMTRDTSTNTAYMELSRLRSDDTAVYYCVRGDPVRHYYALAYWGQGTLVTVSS VL: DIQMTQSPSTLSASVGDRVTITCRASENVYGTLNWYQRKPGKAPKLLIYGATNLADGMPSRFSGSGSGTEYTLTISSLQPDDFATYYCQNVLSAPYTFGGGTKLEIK , is OD 450 nm less than 0.5 OD?
*A* F

*Q* Answer whether the binder recombinant humanized anti-CD66c antibody Protein ID 3043 (Vk8 + VH6) (antibody, human IgG1, V domains shown, also called hu 3043; #71) VH: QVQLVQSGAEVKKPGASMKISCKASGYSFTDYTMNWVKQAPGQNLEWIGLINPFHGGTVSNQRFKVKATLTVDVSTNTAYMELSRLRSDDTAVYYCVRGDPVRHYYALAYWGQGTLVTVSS VL: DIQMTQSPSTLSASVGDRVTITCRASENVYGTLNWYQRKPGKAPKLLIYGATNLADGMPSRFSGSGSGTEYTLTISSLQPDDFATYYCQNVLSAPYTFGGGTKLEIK has OD 450 nm strictly less than 0.5 OD
*A* F

*Q* Dear reviewer, please state whether recombinant humanized anti-CD66c antibody Protein ID 2938 (Vk5 + VH7) (antibody, human IgG1, V domains shown, also called hu 2938) VH: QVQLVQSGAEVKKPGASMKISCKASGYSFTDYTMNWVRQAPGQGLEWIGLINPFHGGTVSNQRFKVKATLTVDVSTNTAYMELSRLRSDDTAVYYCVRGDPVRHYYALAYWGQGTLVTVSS VL: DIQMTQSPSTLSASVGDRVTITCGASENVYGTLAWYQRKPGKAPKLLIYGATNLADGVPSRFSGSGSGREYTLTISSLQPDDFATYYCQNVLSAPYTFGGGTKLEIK has OD 450 nm strictly beneath 0.5 OD.
*A* T

*Q* Is it true that OD 450 nm reported for recombinant humanized anti-CD66c antibody Protein ID 3019 (Vk7 + VH10) (antibody, human IgG1, V domains shown, also called hu 3019; #51) VH: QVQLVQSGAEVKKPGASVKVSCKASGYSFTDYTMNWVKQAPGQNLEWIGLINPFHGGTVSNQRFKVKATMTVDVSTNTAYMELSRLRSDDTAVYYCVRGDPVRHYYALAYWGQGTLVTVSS VL: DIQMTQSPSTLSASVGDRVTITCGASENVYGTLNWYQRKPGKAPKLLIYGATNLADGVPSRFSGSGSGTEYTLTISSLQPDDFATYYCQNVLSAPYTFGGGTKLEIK is less than 0.5 OD?
*A* F
